Measured inhibition at 0.1 µM of individual entries
assaySummary: Inhibition of RANKL/M-CSF-induced osteoclastogenesis in male C57/BL6 mouse bone marrow cells at 0.1 uM incubated for 5 to 7 days by TRAP staining based analysis relative to control
Type: functional
testSettings: C57/BL6, Bone marrow cell, time 5-7 day
Kindly answer with a numeric value in %, unit omitted.

See these solved cases before continuing.
molSmiles: Cc1cccnc1NC(=O)[C@@H]1Cc2c3ccccc3[nH]c2[C@]2(C[C@@H](c3ccccc3)C2)N1
property: inhibition at 0.1 µM
resultNumber: 35.9
//
molSmiles: Cc1ccccc1NC(=O)[C@@H]1Cc2c3ccccc3[nH]c2[C@]2(C[C@H](c3ccccc3)C2)N1
property: inhibition at 0.1 µM
resultNumber: 16.5
//
molSmiles: Cc1cccc(C)c1NC(=O)[C@@H]1Cc2c([nH]c3ccccc23)C2(CN(c3ccc(C#N)cc3)C2)N1
property: inhibition at 0.1 µM
resultNumber: 37.3

Shift focus to the following entry.
Entry under review: Cc1cccnc1NC(=O)[C@@H]1Cc2c3ccccc3[nH]c2[C@]2(C[C@H](c3ccccc3)C2)N1 . Reported inhibition at 0.1 µM? 16.7

Values were extracted from ChEMBL document CHEMBL6178002.
